# assay.setup: in tetrachloromethane, 303.65 K
property: solubility (mole fraction)
Hey, just send me the number, nothing else.

Data point: O=C(O)COc1ccc(Cl)cc1Cl ; solubility (mole fraction) = 4.99e-05

====

# assay.setup: in toluene, 313.25 K
property: solubility (mole fraction)

Briefly, solubility (mole fraction) measured for O=C(O)COc1ccc(Cl)cc1Cl : 0.00547

====

# assay.setup: in tetrachloromethane, 323.05 K
property: solubility (mole fraction)
Form field (numeric): enter value without unit.

The compound O=C(O)COc1ccc(Cl)cc1Cl showed solubility (mole fraction) equal to 0.00074
